Species: Rattus norvegicus
ASSAY NOTES: Open TG-GATES - Regimen: Daily Repeat
Format: toxicity, organism-based, Sprague-Dawley
Design: regimen Daily Repeat, gender Male, age 6 weeks
CONDITION PARAMETERS: in vivo, po, 1000 mg/kg, […], tissue Plasma, route gavage, dose level High, time 7 day
PARAMETER MEASURED: IP
// return the numeric value with its unit appended

MOLECULE	ASSAY RESULT
CC(C)OC(=O)C(C)(C)Oc1ccc(C(=O)c2ccc(Cl)cc2)cc1 [FENOFIBRATE]	7.4 mg/dL
COC1=CC(=O)C[C@@H](C)[C@]12Oc1c(Cl)c(OC)cc(OC)c1C2=O	7.3 mg/dL
CCOc1ccc(NC(=O)CC(C)O)cc1 (stereo unspecified)	6.6 mg/dL

-- ask Look up and state reported IP for COc1ccc2[nH]c([S+]([O-])Cc3ncc(C)c(OC)c3C)nc2c1 (stereo unspecified)
-- reply 8.2 mg/dL

-- ask Look up and state reported IP for CCOC(=O)CCC(=O)O[C@H]1[C@H](O[C@@H]2[C@@H](C)[C@H](O[C@H]3C[C@@](C)(OC)[C@@H](O)[C@H](C)O3)[C@@H](C)C(=O)O[C@H](CC)[C@@](C)(O)[C@H](O)[C@@H](C)C(=O)[C@H](C)C[C@@]2(C)O)O[C@H](C)C[C@@H]1N(C)C [ERYTHROMYCIN ETHYLSUCCINATE]
-- reply 7.4 mg/dL

-- ask Look up and state reported IP for NC(N)=Nc1nc(CSCCC(N)=NS(N)(=O)=O)cs1
-- reply 7.3 mg/dL
